B1: ZNF24 (parent)
chain: THTKEQILELVVLEQFVAILPKEL

- Variants of: B1
- assay.name: protein stability index of a GFP-peptide fusion (GPS, HEK-293T) (PSI 1-6); higher = more stable;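 also: lentivirally expressed fusions sorted by FACS into six bins by GFP to DsRed ratio, PSI derived from sequencing read proportions per bin multiplied by bin number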
- test.context: c terminus: a fixed tail appended
Record form. Attribute: protein stability index. Fill in for each entry.

Qu. Would you kindly share the measured protein stability index for THTKEQILELVVQEQFVAILPKEL ?
Ans. 2.34

Qu. Would you kindly share the measured protein stability index for THTKEQILWLVVLEQFVAILPKEL ?
Ans. 2.87

Qu. Would you kindly share the measured protein stability index for THTKEQILELVVLEQFVAIDPKEL ?
Ans. 2.6

Qu. Would you kindly share the measured protein stability index for THTKEQILELVVLEQFVAILVKEL ?
Ans. 2.28

Qu. Would you kindly share the measured protein stability index for THTKERILELVVLEQFVAILPKEL ?
Ans. 2.56

Qu. Would you kindly share the measured protein stability index for THTKEQILELAVLEQFVAILPKEL ?
Ans. 2.1

Qu. Would you kindly share the measured protein stability index for TKTKEQILELVVLEQFVAILPKEL ?
Ans. 3.34

Qu. Would you kindly share the measured protein stability index for THTTEQILELVVLEQFVAILPKEL ?
Ans. 1.83

Qu. Would you kindly share the measured protein stability index for THTKEQILELVVLETFVAILPKEL ?
Ans. 3.75

Qu. Would you kindly share the measured protein stability index for THTKEQILELVILEQFVAILPKEL ?
Ans. 3.17

Qu. Would you kindly share the measured protein stability index for THTKEQILELVVLEQRVAILPKEL ?
Ans. 1.99

Qu. Would you kindly share the measured protein stability index for THTKEQIEELVVLEQFVAILPKEL ?
Ans. 2.32

Qu. Would you kindly share the measured protein stability index for THTKEQILSLVVLEQFVAILPKEL ?
Ans. 3.48

Qu. Would you kindly share the measured protein stability index for THTKEQILELVVLEQFVAIEPKEL ?
Ans. 2.23

Qu. Would you kindly share the measured protein stability index for THTKEQILELVVLEQFVAIRPKEL ?
Ans. 2.61

Qu. Would you kindly share the measured protein stability index for THTKEQILELVVLEQFVAILPKEC ?
Ans. 2.88

Qu. Would you kindly share the measured protein stability index for THTKEQILELVVLEQFDAILPKEL ?
Ans. 1.71

Qu. Would you kindly share the measured protein stability index for THTKEQILELVVLAQFVAILPKEL ?
Ans. 2.14

Qu. Would you kindly share the measured protein stability index for THTKEQILEIVVLEQFVAILPKEL ?
Ans. 2.02

Qu. Would you kindly share the measured protein stability index for THTKEQILELVVLEQFVAIMPKEL ?
Ans. 1.95

Qu. Would you kindly share the measured protein stability index for THTKEQILELVVLEQLVAILPKEL ?
Ans. 3.14

Qu. Would you kindly share the measured protein stability index for THTKEQILELVVLEQFVAILSKEL ?
Ans. 1.42

Qu. Would you kindly share the measured protein stability index for THTKEQILELVVLEAFVAILPKEL ?
Ans. 2

Qu. Would you kindly share the measured protein stability index for THTKEQILELVVKEQFVAILPKEL ?
Ans. 1.69

Qu. Would you kindly share the measured protein stability index for THTKEQILELVFLEQFVAILPKEL ?
Ans. 2.93

Qu. Would you kindly share the measured protein stability index for THTKEQISELVVLEQFVAILPKEL ?
Ans. 1.57

Qu. Would you kindly share the measured protein stability index for THTKEQELELVVLEQFVAILPKEL ?
Ans. 2.55

Qu. Would you kindly share the measured protein stability index for THTKEQILRLVVLEQFVAILPKEL ?
Ans. 2.49

Qu. Would you kindly share the measured protein stability index for THTKEQILELKVLEQFVAILPKEL ?
Ans. 1.47

Qu. Would you kindly share the measured protein stability index for THTKEQILELVVLEQFVAILPKEK ?
Ans. 2.33

Qu. Would you kindly share the measured protein stability index for THTKEQIWELVVLEQFVAILPKEL ?
Ans. 3.68

Qu. Would you kindly share the measured protein stability index for THTKMQILELVVLEQFVAILPKEL ?
Ans. 3.25

Qu. Would you kindly share the measured protein stability index for THRKEQILELVVLEQFVAILPKEL ?
Ans. 2.26

Qu. Would you kindly share the measured protein stability index for THTKGQILELVVLEQFVAILPKEL ?
Ans. 2.7

Qu. Would you kindly share the measured protein stability index for THTKEQILELVVLEQFVAILPKEA ?
Ans. 2.57

Qu. Would you kindly share the measured protein stability index for THTKEQIDELVVLEQFVAILPKEL ?
Ans. 2.52

Qu. Would you kindly share the measured protein stability index for THTKEQILELVVLEQFVSILPKEL ?
Ans. 1.95

Qu. Would you kindly share the measured protein stability index for THTKEQILELVVLEQFVACLPKEL ?
Ans. 2.61

Qu. Would you kindly share the measured protein stability index for THTKEQILELVVLEQYVAILPKEL ?
Ans. 1.76

Qu. Would you kindly share the measured protein stability index for THTKEQSLELVVLEQFVAILPKEL ?
Ans. 2.04

Qu. Would you kindly share the measured protein stability index for THTKEQILELVVLEQFVAILPDEL ?
Ans. 3.16

Qu. Would you kindly share the measured protein stability index for THTKEQILELVVLEQFVAILPWEL ?
Ans. 2.08

Qu. Would you kindly share the measured protein stability index for THTKEQILELVVLEQFVAILPREL ?
Ans. 2.78

Qu. Would you kindly share the measured protein stability index for THTKEQILELVVLEQFVAILPKEF ?
Ans. 3.54

Qu. Would you kindly share the measured protein stability index for THTKEQILELVVLEQFVAILPKNL ?
Ans. 2.97

Qu. Would you kindly share the measured protein stability index for THTKEQILELVVLEQFVAILPKER ?
Ans. 2.47
